Tested on: CCRF-CEM cells
Assay: Cell viability assay (CellTiter Glo, 72 hours) in CEM cells
Format: cell-based
Details: Homo sapiens, CCRF-CEM, 72 h, read-out: Cell Line IC50 (μM) CEM

{"columns": ["molecule", "IC50 / µM"],
 "data": [
  ["C[C@H](NP(=O)(OC[C@H]1S[C@@H](n2cnc(N)nc2=O)CC1O)Oc1ccccc1)C(=O)OC1CCCC1 (single isomer, unassigned) [Compound 8 Diastereomer 1]", 2.08],
  ["CCC(CC)COC(=O)[C@H](C)NP(=O)(OC[C@H]1S[C@@H](n2cnc(N)nc2=O)C[C@@H]1O)Oc1cccc2ccccc12 (single isomer, unassigned) [Compound 11 Diastereomer 1]", 0.2],
  ["C[C@H](N[P@](=O)(OC[C@H]1S[C@@H](n2cnc(N)nc2=O)C[C@@H]1O)Oc1ccccc1)C(=O)OCc1ccc([N+](=O)[O-])o1 [Compound 7]", 1.71],
  ["CCC(CC)COC(=O)[C@H](C)N[P@](=O)(OC[C@H]1S[C@@H](n2ccc(N)nc2=O)CC1O)Oc1ccccc1 (some centres unmarked) [Compound 14]", 0.15],
  ["CC(C)COC(=O)[C@H](C)NP(=O)(OC[C@H]1S[C@@H](n2cnc(N)nc2=O)CC1O)Oc1cccc2ccccc12 (single isomer, unassigned) [Compound 10 Diastereomer 1]", 0.2]
]}
